Numbers sourced from patent US4070473A.

# Assay method text: Cataleptogenic effect in rats (measure of the extrapyramidal side effects) (Test 4)
# Assay type: in vivo
# Condition summary: rat, in vivo, sc; rats, s.c.; measure of the extrapyramidal side effects; read-out: Cataleptogenic effect, rats ED50
Structures can show the parent of a compound that is named as a salt.
Readout kind: ED50

> print(dat)
                                   molecule  readout.kind  reported.result
1      CCCC1(OC)CCN(CCCC(=O)c2ccc(F)cc2)CC1          ED50        6.2 mg/kg
2      CCCOC1(C)CCN(CCCC(=O)c2ccc(F)cc2)CC1          ED50          7 mg/kg
3  CCOC1(CC)CCN(CCCC(=O)c2ccc(F)cc2)CC1 [Example 6, hydrochloride]          ED50          5 mg/kg
4        COC1(C)CCN(CCCC(=O)c2ccc(F)cc2)CC1          ED50         10 mg/kg
